Source listed as PubChem BioAssay (Tox21).

testTarget: Cytochrome P450 2C19 (Homo sapiens) (UniProt P33261)
Sequence (P33261 whole entry, looked up): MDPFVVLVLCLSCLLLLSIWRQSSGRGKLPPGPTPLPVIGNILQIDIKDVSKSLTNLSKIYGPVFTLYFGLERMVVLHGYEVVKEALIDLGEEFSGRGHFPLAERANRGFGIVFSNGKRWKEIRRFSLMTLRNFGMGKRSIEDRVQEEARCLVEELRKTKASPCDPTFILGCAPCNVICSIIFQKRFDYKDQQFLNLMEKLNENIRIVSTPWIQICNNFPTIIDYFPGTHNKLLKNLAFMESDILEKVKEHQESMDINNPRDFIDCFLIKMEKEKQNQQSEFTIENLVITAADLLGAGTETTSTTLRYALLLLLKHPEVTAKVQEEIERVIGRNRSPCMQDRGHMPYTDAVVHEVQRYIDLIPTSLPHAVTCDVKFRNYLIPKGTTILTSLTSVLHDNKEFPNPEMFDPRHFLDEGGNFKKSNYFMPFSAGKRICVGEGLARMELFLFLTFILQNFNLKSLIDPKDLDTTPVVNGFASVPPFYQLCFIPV
testSummary: Cytochrome P450 Family 2 Subfamily C Member 19 (CYP2C19) small molecule antagonists: luciferase reporter qHTS assay (AID 1671197); further: nearly all actives have a fitted effect of over 65% in size
conditionNotes: P450-Glo CYP2C19 enzyme, luciferin luminescence, 1 h; series mostly up to 115 µM
Records with an inconclusive call do not appear. Activity calls are given as the source filed them. The call rests on the fitted dose curve; in most records, active means well fitted inhibition curve with a large enough effect in the repeat runs; inconclusive means weak or mixed curves; inactive means no such curve, though single readings can be large or run the other way.
Respond with a class label; see active, inactive

Qu. Can you look up the reported call for "COC(=O)c1ccccc1" for me?
Ans. inactive

Qu. Can you look up the reported call for "O=S(=O)(O)c1ccc(O)cc1" for me?
Ans. inactive

Qu. Can you look up the reported call for "C[C@]12CCC(=O)C=C1CC[C@@H]1[C@@H]2C(=O)C[C@@]2(C)[C@H]1CC[C@]2(O)C(=O)CO" for me?
Ans. active
